target: Muscarinic acetylcholine receptor; experiment: Compound was tested in vitro for its binding affinity to muscarinic acetylcholine receptor from rat cortical homogenates using [3H]QNB as radioligand
experimentalReadout: IC50 (µM)
Answer format: numeric, µM implied, no suffix.

Illustrative cases are given below, each with its answer.
Cc1cnnn1C1CN2CCC1CC2 (stereo not given) : 33
C[N+](C)(C)CC#CCN1CCCC1=O.[I-] [OXOTREMORINE METHIODIDE] : 23
c1ncn(C2CN3CCC2CC3)n1 (stereo not given) : 28
c1nnnn1C1CN2CCC1CC2 (stereo not given) : 115

# ---- query compound ----
Give IC50 for Cc1nnn(C2CN3CCC2CC3)n1 (stereo not given) tested on Muscarinic acetylcholine receptor.
2.8

Where these numbers come from: ChEMBL document CHEMBL1125425
